# tested-on: Mu (μ) opioid receptor (Homo sapiens)
# Sequence (P35372 whole entry): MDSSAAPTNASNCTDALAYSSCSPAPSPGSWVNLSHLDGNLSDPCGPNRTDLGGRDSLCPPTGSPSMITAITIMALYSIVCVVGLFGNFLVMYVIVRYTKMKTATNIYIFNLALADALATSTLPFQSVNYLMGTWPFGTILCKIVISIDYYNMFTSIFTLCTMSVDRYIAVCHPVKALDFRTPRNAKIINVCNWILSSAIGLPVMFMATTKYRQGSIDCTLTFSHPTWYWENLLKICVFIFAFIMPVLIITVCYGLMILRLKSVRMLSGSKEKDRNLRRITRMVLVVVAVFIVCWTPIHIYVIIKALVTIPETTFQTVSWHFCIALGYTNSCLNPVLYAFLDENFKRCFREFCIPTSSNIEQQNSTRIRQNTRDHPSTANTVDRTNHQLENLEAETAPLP
# experiment-description: Filtration binding assay, mu opioid receptor (Damgo-H3 ligand)
pIC50: −log10 of the molar value.

line-notation	pIC50
O=C(O)CN1C(=O)C2(CCN(CC3CCCCCCC3)CC2)c2ccccc21	< 5.00
COc1ccc2c(c1)N(CC1CC1)C(=O)C21CCN(CC2CCCCCCC2)CC1	< 5.00

###

# tested-on: ORL-1 receptor (Homo sapiens, UniProt P41146)
# Construct: expressed in transfected cells; host or cells: HEK-293 over-expressing ORL-1 and Gqi5
# Sequence (P41146 whole entry): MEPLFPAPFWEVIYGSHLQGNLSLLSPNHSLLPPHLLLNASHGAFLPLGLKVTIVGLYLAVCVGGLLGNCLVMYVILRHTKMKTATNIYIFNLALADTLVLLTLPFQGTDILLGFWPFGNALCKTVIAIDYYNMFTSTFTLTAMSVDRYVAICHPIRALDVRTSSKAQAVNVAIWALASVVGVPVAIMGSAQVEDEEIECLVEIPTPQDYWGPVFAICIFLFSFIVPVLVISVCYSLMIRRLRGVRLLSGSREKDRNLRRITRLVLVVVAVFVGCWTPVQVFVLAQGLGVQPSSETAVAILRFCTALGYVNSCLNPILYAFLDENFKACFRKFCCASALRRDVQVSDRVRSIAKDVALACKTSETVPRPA
# experiment-description: ORL-1 functional assay (calcium flux, FLIPR)
# Assay type: cell-based
# Set-up: key: a notation of “no” indicates that the compound did not act as an inhibitor; a notation of “yes” indicates that the compound acted as an inhibitor; a notation of “undetermined” indicates that the data did not clearly show whether or not the compound acted as an antagonist
# experimental-conditions: HEK-293 cells over-expressing ORL-1 receptor and Gqi5 G protein, calcium flux

compound	Inhibitor
COC(=O)CN1C(=O)C2(CCN(CC3CCCCCC3)CC2)c2ccccc21 [Compound 1]	no
CN1C(=O)C2(CCN(CC3CCCCCCC3)CC2)c2ccccc21 [Compound 45]	no
COC(=O)CN1C(=O)C2(CCN(CC3CCCCC3)CC2)c2ccccc21 [Compound 24]	yes
CC(=O)OCCN1C(=O)C2(CCN(CC3CCCCCCC3)CC2)c2ccccc21 [Compound 46]	no
